This section presents binders with their documented cAMP Rel. A (%) against human GLP-1 (7-37), human GLP-1 R cells values.
- TARGET OR TEST SYSTEM: human GLP-1 receptor (human, UniProt P43220 24-463)
- ASSAY SUMMARY: cell-based or functional assay
State just the number; it will be interpreted in %.

YXQGTXTSDYSIXLDKKAQXAFIEYLLETGPSSGQPPPS (Aib at 2; αMeF at 6; αMeL at 13; Lys 17 side chain AEEAc-AEEAc-γGlu-CO(CH2)18COOH; Aib at 20; C-terminal amide (NH2)) [Compound 8] : 152

*Q* For YXQGTXTSDYSIXLDKKAQXAFIEFLLEGRPSSXHPPPS (Aib at 2; αMeF(2F) at 6; αMeL at 13; Lys 17 side chain AEEAc-AEEAc-γGlu-CO(CH2)18COOH; Aib at 20; Aib at 34; C-terminal amide (NH2)) [Compound 25] , what is its reported cAMP Rel. A (%) against human GLP-1 (7-37), human GLP-1 R cells?
*A* 142

*Q* # input binder: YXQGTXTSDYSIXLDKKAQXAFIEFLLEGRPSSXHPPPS (Aib at 2; αMeF at 6; αMeL at 13; Lys 17 side chain AEEAc-AEEAc-γGlu-CO(CH2)18COOH; Aib at 20; Aib at 34; C-terminal amide (NH2)) [Compound 37] ; wanted: its cAMP Rel. A (%) against human GLP-1 (7-37), human GLP-1 R cells
*A* 157

*Q* Requested field: cAMP Rel. A (%) against human GLP-1 (7-37), human GLP-1 R cells. Item: YXQGTXTSDYSIFLDKKAQXAFIEYLLETGPSSGAPPPS (Aib at 2; αMeF(2F) at 6; Lys 17 side chain AEEAc-AEEAc-γGlu-CO(CH2)18COOH; Aib at 20; C-terminal amide (NH2)) [Compound 17]
*A* 400

*Q* What value of cAMP Rel. A (%) against human GLP-1 (7-37), human GLP-1 R cells has been reported for the following binder? YXQGTXTSDYSIFLDKKAQXAFIEFLLETGPSSGAPPXS (Aib at 2; αMeF(2F) at 6; Lys 17 side chain AEEAc-AEEAc-γGlu-CO(CH2)18COOH; Aib at 20; Ac3c at 38; C-terminal amide (NH2)) [Compound 9]
*A* 259

*Q* Need cAMP Rel. A (%) against human GLP-1 (7-37), human GLP-1 R cells of YXQGTXTSDYSIXLDKKAQXAFIEYLLETGPSSGXPPPS (Aib at 2; αMeF at 6; αMeL at 13; Lys 17 side chain AEEAc-AEEAc-γGlu-CO(CH2)18COOH; Aib at 20; Aib at 35; C-terminal amide (NH2)) [Compound 7] , thanks.
*A* 440
